Assay: method code SF-RC, from DOI: 10.1021/jm301492y, PMID: 23214511
Conditions: pH 7.4
reported.endpoint: logD

smiles.repr	reported.endpoint	result.value
CCCCCCNC(=O)c1cccc(C2=NCCO2)c1	logD	3.33
O=C(NC1CCCCC1)c1cccc(C2=NCCO2)c1	logD	3.01
O=C(NC1CCCC1)c1cccc(C2=NCCO2)c1	logD	2.35
NC(=O)c1cccc(-c2cccc(C(=O)NC3CCCCC3)c2)c1	logD	3.61
O=C(NC1CCCC1)c1ccc(O)c(-c2ccccc2)c1	logD	2.8
O=C(NC1CCC1)c1ccc(O)c(-c2ccccc2)c1	logD	3.42
